The values you see were collected from PubChem BioAssay.

Catalogue of red/green cell ratio (normalised) values
assay: differential killing of epithelial or mesenchymal cells, primary screen, imaging, PC-3E GFP, TEM4-18 mCherry, co-culture (AID 1345086); conditions: imaging cell counts, at 1 µM, actives lie on both sides, counts scaled to control wells, 1 = unselective;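 note: normalised mesenchymal count divided by normalised epithelial count so high means epithelial killing; cells exposed to compound for 72 h before imaging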
Active and inactive are the calls of the source.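 Rule for the calls: active = compounds killing one labelled cell type while sparing the other, by normalised counts and ratio limits, not self-fluorescent; inactive = the rest.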

Study these solved cases before continuing.
Cc1occc(=O)c1O    0.9 (inactive)
CC(C)=CCC/C(C)=C/CC/C(C)=C/CO    0.89 (inactive)
O=C1c2ccccc2C(=O)c2c(O)c(O)cc(O)c21    1.09 (inactive)
COc1cc(O)c(C(=O)c2ccccc2)cc1O    0.89 (inactive)
Nc1ccccc1C(=O)CC(N)C(=O)O (stereo not given)    1.23 (inactive)

red/green cell ratio (normalised) measured on O=C(CCCCCCC(=O)Nc1ccccc1)NO = 1.29 (inactive)

red/green cell ratio (normalised) measured on N[C@@H](C(=O)O)[C@@H](O)[C@H](O)[C@H](O)CO = 1.16 (inactive)

red/green cell ratio (normalised) measured on O=C1C[C@@H](c2ccc(O)cc2)Oc2cc(O)cc(O)c21 = 1.16 (inactive)

red/green cell ratio (normalised) measured on CCOC(=O)CCC(=O)O[C@H]1[C@H](O[C@@H]2[C@@H](C)[C@H](O[C@H]3C[C@@](C)(OC)[C@@H](O)[C@H](C)O3)[C@@H](C)C(=O)O[C@H](CC)[C@@](C)(O)[C@H](O)[C@@H](C)C(=O)[C@H](C)C[C@@]2(C)O)O[C@H](C)C[C@@H]1N(C)C = 1.11 (inactive)

red/green cell ratio (normalised) measured on CN(C)CCN(Cc1cccs1)c1ccccn1 = 1.12 (inactive)

====

Catalogue of inhibition of aggregation values
assay: inhibitors of polyQ protein aggregation (AID 1604); details: polyglutamine-induced protein aggregation inhibition assay; stronger effect = higher value; tested at 2.5 µM
Use % as the unit, but write only the number.

inhibition of aggregation measured on COC(=O)C1=C(C)NC(C)=C(C(=O)OC)C1c1ccccc1[N+](=O)[O-] = 15.2

inhibition of aggregation measured on CSCCC(N)C(=O)NC(CC(C)C)C(=O)NC(Cc1ccccc1)C(=O)O (stereo not given) = 67.8

inhibition of aggregation measured on CSCCC(NC=O)C(=O)NC(C)C(=O)O (stereo not given) = 81.6

inhibition of aggregation measured on NC(N)=NCCC[C@@H](NC(=O)[C@@H](N)Cc1ccc(O)cc1)C(=O)O = 77

inhibition of aggregation measured on CN(C)CCC(c1ccc(Cl)cc1)c1ccccn1 (stereo not given) = -12.5

====

biological target: 6-phosphogluconate dehydrogenase, decarboxylating (Homo sapiens) (UniProt P52209); assay: 6PGD enzyme inhibitors, primary screen, biochemical, human, recombinant enzyme, NADPH absorbance (AID 1159550); settings: recombinant 6PGD, NADPH absorbance 341 nm; at 10 µM; stronger effect = higher value
Sequence (P52209 whole entry, looked up): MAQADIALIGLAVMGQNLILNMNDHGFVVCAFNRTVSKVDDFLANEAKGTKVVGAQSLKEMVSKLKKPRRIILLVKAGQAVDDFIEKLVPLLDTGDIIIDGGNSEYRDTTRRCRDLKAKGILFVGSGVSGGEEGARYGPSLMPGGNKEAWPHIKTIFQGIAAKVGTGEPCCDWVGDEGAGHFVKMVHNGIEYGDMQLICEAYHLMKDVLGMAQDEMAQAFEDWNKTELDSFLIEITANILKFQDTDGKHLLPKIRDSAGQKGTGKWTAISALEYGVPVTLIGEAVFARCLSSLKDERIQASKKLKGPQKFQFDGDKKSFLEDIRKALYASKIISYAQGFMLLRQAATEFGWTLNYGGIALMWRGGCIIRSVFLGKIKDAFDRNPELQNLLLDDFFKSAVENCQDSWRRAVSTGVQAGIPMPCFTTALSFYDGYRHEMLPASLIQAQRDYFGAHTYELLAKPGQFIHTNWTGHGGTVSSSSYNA
Catalogue of inhibition values
Use % as the unit, but write only the number.

CC=C1[C@H]2C=C(C)C[C@]1(N)c1ccc(=O)[nH]c1C2    -0.222

inhibition measured on C[C@@H]1O[C@@H](O[C@H]2[C@H](O[C@H]3CC[C@@]4(C)[C@@H](CC[C@]5(C)[C@@H]4CC=C4[C@@H]6CC(C)(C)CC[C@]6(C(=O)O[C@@H]6O[C@H](CO[C@@H]7O[C@H](CO)[C@@H](O[C@@H]8O[C@@H](C)[C@H](O)[C@@H](O)[C@H]8O)[C@H](O)[C@H]7O)[C@@H](O)[C@H](O)[C@H]6O)CC[C@]45C)[C@]3(C)CO)OC[C@H](O)[C@@H]2O)[C@H](O)[C@H](O)[C@H]1O = 5.65
